target: TLR7 (Homo sapiens); assay: IFN-α1-luciferase reporter assay in genetically modified Namalwa cells, TLR7; format: cell-based; set-up: expressed in transfected cells; host or cells: Namalwa (ATCC CRL-1432); details: 10 μM IRM, 18 hours
Sequence (Q9NYK1 27-1049): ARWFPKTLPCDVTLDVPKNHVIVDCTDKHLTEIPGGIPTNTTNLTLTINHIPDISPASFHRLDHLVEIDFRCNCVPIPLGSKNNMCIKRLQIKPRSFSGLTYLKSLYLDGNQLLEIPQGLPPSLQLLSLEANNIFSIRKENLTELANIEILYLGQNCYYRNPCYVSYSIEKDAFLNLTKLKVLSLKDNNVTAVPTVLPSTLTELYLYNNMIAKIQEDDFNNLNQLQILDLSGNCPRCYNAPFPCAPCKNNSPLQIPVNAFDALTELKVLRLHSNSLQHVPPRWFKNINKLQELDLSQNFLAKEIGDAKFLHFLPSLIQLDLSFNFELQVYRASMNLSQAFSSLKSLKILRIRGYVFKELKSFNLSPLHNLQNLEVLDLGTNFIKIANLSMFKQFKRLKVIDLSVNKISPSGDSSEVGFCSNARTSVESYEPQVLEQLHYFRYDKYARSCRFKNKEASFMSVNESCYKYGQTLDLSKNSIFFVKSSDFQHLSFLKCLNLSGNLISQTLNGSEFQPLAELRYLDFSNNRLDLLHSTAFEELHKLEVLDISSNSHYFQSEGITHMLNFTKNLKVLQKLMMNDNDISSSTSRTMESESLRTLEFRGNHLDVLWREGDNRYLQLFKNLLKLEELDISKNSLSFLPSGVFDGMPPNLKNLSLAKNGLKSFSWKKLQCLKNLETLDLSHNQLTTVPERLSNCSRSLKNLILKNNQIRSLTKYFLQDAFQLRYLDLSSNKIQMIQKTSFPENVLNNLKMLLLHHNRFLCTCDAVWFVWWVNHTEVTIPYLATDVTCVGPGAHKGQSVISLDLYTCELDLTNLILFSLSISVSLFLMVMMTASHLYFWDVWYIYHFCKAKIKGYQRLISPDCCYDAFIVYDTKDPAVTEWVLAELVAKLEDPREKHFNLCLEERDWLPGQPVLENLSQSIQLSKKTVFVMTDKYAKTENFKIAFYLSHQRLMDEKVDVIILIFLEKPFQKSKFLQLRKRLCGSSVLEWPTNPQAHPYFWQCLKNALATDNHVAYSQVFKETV
Assign classes using reported TLR7: fold increase of the IFN-α1-induced luciferase signal compared to a DMSO control values and the ranges lo: < 2 fold increase; med: ≥ 2 fold increase and < 3 fold increase; hi: ≥ 3 fold increase, please.

Query: Category lookup for the molecule Nc1nc2ccccc2c2c1ncn2CCOCc1cc2ccccc2o1 [IRM31]
Response: lo

Query: Note, next up: Nc1nc2ccccc2c2c1ncn2CCCCCCCCNC(=O)c1ccccc1 [IRM43]
Response: med

Query: Note, next up: COCCc1nc2c(N)nc3ccccc3c2n1CCOCCNC(=O)Nc1ccccc1 [IRM19]
Response: med

Query: Note, next up: CCCCc1nc2c(N)nc3ccccc3c2n1CCCNC(=O)Nc1ccccc1 [IRM32]
Response: lo

Query: Note, next up: CCC(C)NC(=S)NCCn1c(CCOC)nc2c(N)nc3ccccc3c21 (stereo not drawn) [IRM21]
Response: hi

Query: Note, next up: CCCCc1nc2c(N)nc3ccc(OCC(=O)N4CCOCC4)cc3c2n1C [IRM44]
Response: lo

Query: Note, next up: CCc1nc2c(N)nc3ccccc3c2n1CCCCSC(C)C [IRM50]
Response: lo

Query: Note, next up: Nc1nc2ccccc2c2c1ncn2CCCC(=O)c1ccccc1 [IRM46]
Response: lo

Query: Note, next up: CCOCc1nc2c(N)nc3ccccc3c2n1CC(C)C [IRM1]
Response: med

Query: Note, next up: CCC(COCCCc1ccccc1)n1cnc2c(N)nc3ccccc3c21 (stereo not drawn) [IRM45]
Response: lo

Query: Note, next up: Nc1nc2ccccc2c2c1ncn2CCOCCCc1cccnc1 [IRM35]
Response: med

Query: Note, next up: Nc1nc2ccccc2c2c1ncn2CCCCNC(=O)c1cccc2ccccc12 [IRM24]
Response: hi

Query: Note, next up: Nc1nc2ccccc2c2c1ncn2COCCOc1ccc([N+](=O)[O-])cc1 [IRM29]
Response: lo

Query: Note, next up: COCCc1nc2c(N)nc3ccccc3c2n1CCOCCNC(=O)c1ccc(C(=O)NCCOCCn2c(CCOC)nc3c(N)nc4ccccc4c32)cc1 [IRM51]
Response: lo

Query: Note, next up: COCCc1nc2c(N)nc3c(c2n1CC(C)(C)NS(C)(=O)=O)CCCC3 [IRM22]
Response: hi

Query: Note, next up: CCCCc1nc2c(N)nc3cccnc3c2n1CCNC(=O)c1ccc(Br)s1 [IRM42]
Response: hi

###

Give measured TLR6: fold increase of the IFN-α1-induced luciferase signal compared to a DMSO control for each item. Keep answers brief.
Target: TLR6 (Homo sapiens)
Construct: expressed in transfected cells; host or cells: Namalwa (ATCC CRL-1432), pCI-TLR6 vector, G418 selected
Assay: IFN-α1-luciferase reporter assay in genetically modified Namalwa cells, TLR6
Assay type: cell-based
Details: 10 μM IRM, 18 hours
Source text: Results are shown in Table 6 and are expressed as fold induction of IFN-α1 —induced luciferase signal, again with respect to a vehicle control. […] The selected transfected cells were counted and resuspended to a concentration of 1×10^6 cell per mL in culture medium. […]
Report the value in fold increase with no unit label.

Query: Which TLR6: fold increase of the IFN-α1-induced luciferase signal compared to a DMSO control value belongs to COCCc1nc2c(N)nc3c(c2n1CC(C)(C)NS(C)(=O)=O)CCCC3 ?
Response: 16.25

Query: Note, next up: COCCc1nc2c(N)nc3ccccc3c2n1CCOCCN(C)C(=O)C1CCCCC1
Response: 10.24

Query: Note, next up: COCCc1nc2c(N)nc3ccccc3c2n1CCOCCNC(=O)Nc1ccccc1
Response: 12.60

Query: Note, next up: COCCc1nc2c(N)nc3ccccc3c2n1CCOCCNC(=O)N1CCOCC1
Response: 10.92

Query: Note, next up: CN(C)c1cccc(CCCOCCn2cnc3c(N)nc4ccccc4c32)c1
Response: 0.04

Query: Note, next up: CCc1nc2c(N)nc3ccccc3c2n1CCCCSC(C)C
Response: 8.80

Query: Note, next up: CCc1nc2c(N)nc3ccc(OCc4ccccc4)cc3c2n1CCCCNC(=O)c1ccccc1
Response: 4.56

Query: Note, next up: CCCCc1nc2c(N)nc3ccc(OCC(=O)N4CCOCC4)cc3c2n1C
Response: 6.10

Query: Note, next up: Cc1nc2c(N)nc3ccccc3c2n1CCOCC#Cc1ccccc1
Response: 9.42

Query: Note, next up: Nc1nc2ccccc2c2c1ncn2COCCOc1ccc([N+](=O)[O-])cc1
Response: 4.57

###

Molecular target: TLR6 (Homo sapiens)
Construct: expressed in transfected cells; host or cells: Namalwa (ATCC CRL-1432), pCI-TLR6 vector, G418 selected
Sequence (Q9Y2C9 32-796): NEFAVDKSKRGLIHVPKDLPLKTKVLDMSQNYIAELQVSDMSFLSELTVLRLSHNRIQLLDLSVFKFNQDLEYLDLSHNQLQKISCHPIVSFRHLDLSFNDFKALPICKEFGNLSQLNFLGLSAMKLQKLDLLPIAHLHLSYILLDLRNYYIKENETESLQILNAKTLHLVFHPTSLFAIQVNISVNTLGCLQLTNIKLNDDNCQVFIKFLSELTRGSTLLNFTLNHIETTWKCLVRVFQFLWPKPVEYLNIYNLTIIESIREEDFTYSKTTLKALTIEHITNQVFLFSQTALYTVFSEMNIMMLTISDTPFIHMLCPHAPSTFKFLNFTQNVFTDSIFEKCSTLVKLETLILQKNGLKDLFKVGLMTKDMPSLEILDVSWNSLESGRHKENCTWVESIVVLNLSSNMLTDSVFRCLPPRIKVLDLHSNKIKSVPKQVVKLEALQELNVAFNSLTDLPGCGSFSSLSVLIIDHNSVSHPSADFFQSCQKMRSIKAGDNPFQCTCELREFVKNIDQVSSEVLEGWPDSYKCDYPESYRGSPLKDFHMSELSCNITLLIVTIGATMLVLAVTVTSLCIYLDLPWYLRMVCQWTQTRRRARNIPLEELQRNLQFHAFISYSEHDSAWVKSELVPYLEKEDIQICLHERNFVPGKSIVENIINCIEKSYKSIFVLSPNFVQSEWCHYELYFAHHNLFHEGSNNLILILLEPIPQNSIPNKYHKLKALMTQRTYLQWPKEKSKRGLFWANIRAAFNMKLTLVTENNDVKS
Experiment: IFN-α1-luciferase reporter assay in genetically modified Namalwa cells, TLR6
Type: cell-based
Settings: 10 μM IRM, 18 hours
VALUE_TYPE: TLR6: fold increase of the IFN-α1-induced luciferase signal compared to a DMSO control (fold increase)
Report the value in fold increase with no unit label.

Query: Which TLR6: fold increase of the IFN-α1-induced luciferase signal compared to a DMSO control value belongs to CCOCc1nc2c(N)nc3ccccc3c2n1CC(C)C ?
Response: 7.93

Query: Note, next up: CCOCc1nc2c(N)nc(C)c(C)c2n1CCNS(C)(=O)=O
Response: 1.50

Query: Note, next up: CCCCc1nc2c(N)nc3ccccc3c2n1CCCCCS(C)(=O)=O
Response: 13.61

Query: Note, next up: CCC(C)NC(=S)NCCn1c(CCOC)nc2c(N)nc3ccccc3c21 (stereo not shown)
Response: 17.98

Query: Note, next up: CCCCc1nc2c(N)nc3ccccc3c2n1CCCCNS(=O)(=O)c1ccc2ccccc2c1
Response: 4.38

Query: Note, next up: Nc1nc2ccccc2c2c1ncn2CCOCCCc1cccnc1
Response: 6.72

Query: Note, next up: Cc1nc2c(N)nc3ccccc3c2n1CC(C)(C)O
Response: 10.80

Query: Note, next up: Nc1nc2ccccc2c2c1ncn2CCCC(=O)c1ccccc1
Response: 3.75

Query: Note, next up: COCCc1nc2c(N)nc3ccccc3c2n1CCOCCNC(=O)c1ccc(C(=O)NCCOCCn2c(CCOC)nc3c(N)nc4ccccc4c32)cc1
Response: 3.67

Query: Note, next up: CCC(COCCCc1ccccc1)n1cnc2c(N)nc3ccccc3c21 (stereo not shown)
Response: 5.56

Query: Note, next up: CCc1nc2c(N)nc3ccccc3c2n1CCCCSc1cc(Cl)cc(Cl)c1
Response: 2.73

Query: Note, next up: CCOCc1nc2c(N)nc3c(c2n1CC(C)(C)O)CCCC3
Response: 12.95

Query: Note, next up: Nc1nc2ccccc2c2c1ncn2CCCCNC(=O)c1cccc2ccccc12
Response: 0.00

Query: Note, next up: CCc1nc2c(N)nc3ccccc3c2n1CCCCNC(=O)C1CCCCC1
Response: 12.49

Query: Note, next up: CCCCc1nc2c(N)nc3cccnc3c2n1CCNC(=O)c1ccc(Br)o1
Response: 0.90

Query: Note, next up: Nc1nc2ccccc2c2c1ncn2CCOCc1cc2ccccc2o1
Response: 3.40

Source of measurements: patent US20040171086A1
